Data credit: patent US20070197446A1

target: HLA-B*0801
Threshold rule: ELISA (Absorption-Pass/Fail Control) greater than or equal to 0.3 absorption is fulfilled; below that, not fulfilled.

Answered cases to consult:
VTHAQDILE (modifications not checked) [… (SEQ ID NO: 33)] ... fulfilled
DTIMEKNVT (modifications not checked) [… (SEQ ID NO: 32)] ... not fulfilled

Query: Check this binder for ELISA (Absorption-Pass/Fail Control) at or above 0.3 absorption: VSLVKSDQI (modifications not checked) [… (SEQ ID NO: 31)]
Result: fulfilled

Query: Test whether the binder KPLILRDCS (modifications not checked) [… (SEQ ID NO: 35)] records ELISA (Absorption-Pass/Fail Control) of 0.3 absorption or higher.
Result: not fulfilled

Query: Would you say PLILRDCSV (modifications not checked) [… (SEQ ID NO: 36)] shows ELISA (Absorption-Pass/Fail Control) at minimum 0.3 absorption?
Result: fulfilled
